Measured solubility (g/100 g solution) accompanies every entry in the list below.
# assay-explanation: xn = mol fraction of the nth substance listed, in the solute-free solvent
# condition-info: 293.15 K; x2 = 0.4117
measured-metric: solubility (g/100 g solution)

compound | measured-metric | measurement
COC(=O)C1=C(C)NC(C)=C(C(=O)OCC(C)C)C1c1ccccc1[N+](=O)[O-] (centres undefined) + CCCO + O | solubility (g/100 g solution) | 4.11
O=[N+]([O-])c1cc[nH]n1 + CCCO + O | solubility (g/100 g solution) | 2.82
CC(=O)Nc1ccc(OC(=O)c2ccccc2OC(C)=O)cc1 + CC(C)O + O | solubility (g/100 g solution) | 0.148
CS(=O)(=O)c1ccc(C(O)C(CF)NC(=O)C(Cl)Cl)cc1 (centres undefined) + CC(C)O + O | solubility (g/100 g solution) | 0.669
